# TEST_SUMMARY: Growth inhibition of human NCI60 cells
# Assay type: functional
Quick reference: GI50 of the listed items.

| SMILES_ENTRY | GI50 |
| --- | --- |
| COc1cc2c3c(n(CCCNS(=O)(=O)c4ccccc4)c(=O)c2cc1OC)-c1ccccc1C3=O | 1.35 µM |
| O=C1c2cc(-c3ccccc3)ccc2-c2c1c1ccc([N+](=O)[O-])cc1c(=O)n2CCCNS(=O)(=O)c1ccccc1 | 0.55 µM |
| COC(=O)c1ccc2c(c1)C(=O)c1c-2n(CCCNS(=O)(=O)c2ccccc2)c(=O)c2cc(OC)c(OC)cc12 | 12.6 µM |
| O=C1c2ccccc2-c2c1c1cc3c(cc1c(=O)n2CCCNS(=O)(=O)c1ccccc1)OCO3 | 0.617 µM |
| O=C1c2ccccc2-c2c1c1ccc([N+](=O)[O-])cc1c(=O)n2CCCNS(=O)(=O)c1ccccc1 | 0.046 µM |

====

Quick reference: inhibition of the listed items.
# TGT: DNA topoisomerase 1 (Homo sapiens)
# TEST_SUMMARY: Inhibition of human recombinant Top1-mediated DNA cleavage by polyacrylamide gel electrophoresis relative to camptothecin
# Parameters: concentration or dose not given beside the values
# RECORDED_CONDITIONS: concentration not given here
MEASURED_METRIC: inhibition (%)

| SMILES_ENTRY | MEASURED_METRIC | VALUE_MEASURED |
| --- | --- | --- |
| COc1cc2c3c(n(CCCNS(=O)(=O)c4ccccc4)c(=O)c2cc1OC)-c1ccccc1C3=O | inhibition | 75 |
| NCCCCCn1c2c(c3ccccc3c1=O)C(=O)c1ccccc1-2 | inhibition | 0 |
| NCCCCCCCCn1c2c(c3ccccc3c1=O)C(=O)c1ccccc1-2 | inhibition | 20 |
| COC(=O)c1ccc2c(c1)C(=O)c1c-2n(CCCNS(=O)(=O)c2ccccc2)c(=O)c2cc(OC)c(OC)cc12 | inhibition | 0 |
| NCCCCn1c2c(c3ccccc3c1=O)C(=O)c1ccccc1-2 | inhibition | 75 |
| O=C1c2ccccc2-c2c1c1ccccc1c(=O)n2CCCNCCCNCCCn1c2c(c3ccccc3c1=O)C(=O)c1ccccc1-2 | inhibition | 100 |
| NCCCCCCCCCn1c2c(c3ccccc3c1=O)C(=O)c1ccccc1-2 | inhibition | 0 |
| NCCCn1c2c(c3ccccc3c1=O)C(=O)c1ccccc1-2 | inhibition | 75 |
| O=C1c2cc(-c3ccccc3)ccc2-c2c1c1ccc([N+](=O)[O-])cc1c(=O)n2CCCNS(=O)(=O)c1ccccc1 | inhibition | 0 |
| NCCCCCCCCCCCn1c2c(c3ccccc3c1=O)C(=O)c1ccccc1-2 | inhibition | 20 |

====

Quick reference: pIC50 of the listed items.
# TGT: UniProt:Q9NUW8
# TEST_SUMMARY: Inhibition of human Tdp1 in Tdp1-deficient chicken DT40 whole cell extract using 5'-[32P]-labeled single-stranded DNA oligonucleotide containing 3'-phosphotyrosine as substrate after 15 mins by PAGE analysis
pIC50: −log10 of the molar value.
MEASURED_METRIC: pIC50

| SMILES_ENTRY | VALUE_MEASURED |
| --- | --- |
| NCCCCn1c2c(c3ccccc3c1=O)C(=O)c1ccccc1-2 | 4.63 |
| NCCn1c2c(c3ccccc3c1=O)C(=O)c1ccccc1-2 | 4.11 |
| NCCCCCn1c2c(c3ccccc3c1=O)C(=O)c1ccccc1-2 | 4.55 |
| NCCCCCCCCCn1c2c(c3ccccc3c1=O)C(=O)c1ccccc1-2 | 4.32 |
| NCCCCCCCCCCCCn1c2c(c3ccccc3c1=O)C(=O)c1ccccc1-2 | 4.48 |
| NCCCCCCCCCCn1c2c(c3ccccc3c1=O)C(=O)c1ccccc1-2 | 4.67 |
| NCCCCCCn1c2c(c3ccccc3c1=O)C(=O)c1ccccc1-2 | 4.46 |
| NCCCCCCCCn1c2c(c3ccccc3c1=O)C(=O)c1ccccc1-2 | 4.31 |
| NCCCCCCCn1c2c(c3ccccc3c1=O)C(=O)c1ccccc1-2 | 4.51 |
| NCCCn1c2c(c3ccccc3c1=O)C(=O)c1ccccc1-2 | 4.53 |
| NCCCCCCCCCCCn1c2c(c3ccccc3c1=O)C(=O)c1ccccc1-2 | 4.85 |

====

Quick reference: IC50 of the listed items.
# TGT: Tyrosyl-DNA phosphodiesterase 1 (Homo sapiens, UniProt Q9NUW8)
# Sequence (Q9NUW8 whole entry): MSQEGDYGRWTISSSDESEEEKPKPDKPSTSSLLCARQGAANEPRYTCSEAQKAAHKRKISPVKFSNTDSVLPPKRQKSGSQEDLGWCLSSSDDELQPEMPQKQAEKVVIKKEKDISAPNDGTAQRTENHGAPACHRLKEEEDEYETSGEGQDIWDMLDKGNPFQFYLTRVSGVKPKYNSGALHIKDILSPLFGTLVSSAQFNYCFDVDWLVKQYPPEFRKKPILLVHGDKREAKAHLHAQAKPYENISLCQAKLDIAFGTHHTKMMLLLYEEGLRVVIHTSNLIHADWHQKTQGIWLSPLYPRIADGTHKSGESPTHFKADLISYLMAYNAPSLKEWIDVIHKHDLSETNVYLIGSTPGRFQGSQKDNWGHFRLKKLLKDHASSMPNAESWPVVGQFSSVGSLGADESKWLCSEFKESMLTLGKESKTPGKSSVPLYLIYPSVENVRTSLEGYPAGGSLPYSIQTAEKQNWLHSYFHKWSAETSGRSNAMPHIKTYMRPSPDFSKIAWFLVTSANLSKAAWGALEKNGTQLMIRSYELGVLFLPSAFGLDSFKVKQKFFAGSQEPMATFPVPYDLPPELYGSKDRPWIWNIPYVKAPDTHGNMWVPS
# TEST_SUMMARY: Inhibition of human recombinant Tdp1 using 5'-[32P]-labeled single-stranded DNA oligonucleotide containing 3'-phosphotyrosine as substrate assessed as prevention of generation of oligonucleotide with free 3'-phosphate after 15 mins by PAGE analysis

| SMILES_ENTRY | TGT | LT_GT_EQ | IC50 / µM |
| --- | --- | --- | --- |
| O=C1c2ccccc2-c2c1c1ccccc1c(=O)n2CCCCCCCCNS(=O)(=O)c1ccc(Br)cc1 | Tyrosyl-DNA phosphodiesterase 1 (Homo sapiens, UniProt Q9NUW8) | > | 111 |
| O=C1c2ccccc2-c2c1c1ccccc1c(=O)n2CCCCCCCCCCCCNS(=O)(=O)c1ccccc1 | Tyrosyl-DNA phosphodiesterase 1 (Homo sapiens, UniProt Q9NUW8) | > | 111 |
| NCCn1c2c(c3ccccc3c1=O)C(=O)c1ccccc1-2 | Tyrosyl-DNA phosphodiesterase 1 (Homo sapiens, UniProt Q9NUW8) | = | 55.3 |
| NCCCCCCCCCCCCn1c2c(c3ccccc3c1=O)C(=O)c1ccccc1-2 | Tyrosyl-DNA phosphodiesterase 1 (Homo sapiens, UniProt Q9NUW8) | = | 15.1 |
| Cc1ccc(S(=O)(=O)NCCCCCCCCCCn2c3c(c4ccccc4c2=O)C(=O)c2ccccc2-3)cc1 | Tyrosyl-DNA phosphodiesterase 1 (Homo sapiens, UniProt Q9NUW8) | > | 111 |

====

Quick reference: inhibition of the listed items.
# TGT: DNA topoisomerase 1 (Homo sapiens)
# TEST_SUMMARY: Inhibition of human recombinant Top1-mediated DNA cleavage by polyacrylamide gel electrophoresis relative to camptothecin
# Set-up: concentration or dose not given beside the values
# RECORDED_CONDITIONS: concentration not given here

| SMILES_ENTRY | UNITS | inhibition |
| --- | --- | --- |
| NCCCCCCCn1c2c(c3ccccc3c1=O)C(=O)c1ccccc1-2 | % | 0 |
| NCCCCCCCCCCCCn1c2c(c3ccccc3c1=O)C(=O)c1ccccc1-2 | % | 0 |
| NCCCCCCn1c2c(c3ccccc3c1=O)C(=O)c1ccccc1-2 | % | 50 |
| NCCCCCCCCCCn1c2c(c3ccccc3c1=O)C(=O)c1ccccc1-2 | % | 0 |
| NCCn1c2c(c3ccccc3c1=O)C(=O)c1ccccc1-2 | % | 75 |
| O=C1c2ccccc2-c2c1c1cc3c(cc1c(=O)n2CCCNS(=O)(=O)c1ccccc1)OCO3 | % | 50 |
| O=C1c2ccccc2-c2c1c1ccc([N+](=O)[O-])cc1c(=O)n2CCCNS(=O)(=O)c1ccccc1 | % | 100 |

====

# TGT: Tyrosyl-DNA phosphodiesterase 1 (Homo sapiens)
# TEST_SUMMARY: Inhibition of human recombinant Tdp1 using 5'-[32P]-labeled single-stranded DNA oligonucleotide containing 3'-phosphotyrosine as substrate assessed as prevention of generation of oligonucleotide with free 3'-phosphate after 15 mins by PAGE analysis
MEASURED_METRIC: IC50

| SMILES_ENTRY | VALUE_MEASURED |
| --- | --- |
| O=C1c2ccccc2-c2c1c1ccccc1c(=O)n2CCCNS(=O)(=O)c1ccc(Br)cc1 | > 111 µM |
| Cc1ccc(S(=O)(=O)NCCCCCCCCCCCCn2c3c(c4ccccc4c2=O)C(=O)c2ccccc2-3)cc1 | > 111 µM |
| O=C1c2ccccc2-c2c1c1ccccc1c(=O)n2CCCCCCCCCCCCNS(=O)(=O)c1ccc(Br)cc1 | > 111 µM |
| NCCCCCCn1c2c(c3ccccc3c1=O)C(=O)c1ccccc1-2 | 25 µM |
| O=C1c2ccccc2-c2c1c1ccccc1c(=O)n2CCNS(=O)(=O)c1ccccc1 | > 111 µM |
| CS(=O)(=O)NCCCCCCCn1c2c(c3ccccc3c1=O)C(=O)c1ccccc1-2 | > 111 µM |
| O=C1c2ccccc2-c2c1c1ccccc1c(=O)n2CCNS(=O)(=O)c1ccc(Br)cc1 | > 111 µM |
| Cc1ccc(S(=O)(=O)NCCCCCn2c3c(c4ccccc4c2=O)C(=O)c2ccccc2-3)cc1 | > 111 µM |
| O=C1c2ccccc2-c2c1c1ccccc1c(=O)n2CCCO | > 111 µM |
